These entries and their values trace back to patent US9434743B2.

Measured IC50, listed per entry for reference.
Target of assay: human MetAP2 enzyme (Homo sapiens, UniProt P50579)
Sequence (P50579 whole entry): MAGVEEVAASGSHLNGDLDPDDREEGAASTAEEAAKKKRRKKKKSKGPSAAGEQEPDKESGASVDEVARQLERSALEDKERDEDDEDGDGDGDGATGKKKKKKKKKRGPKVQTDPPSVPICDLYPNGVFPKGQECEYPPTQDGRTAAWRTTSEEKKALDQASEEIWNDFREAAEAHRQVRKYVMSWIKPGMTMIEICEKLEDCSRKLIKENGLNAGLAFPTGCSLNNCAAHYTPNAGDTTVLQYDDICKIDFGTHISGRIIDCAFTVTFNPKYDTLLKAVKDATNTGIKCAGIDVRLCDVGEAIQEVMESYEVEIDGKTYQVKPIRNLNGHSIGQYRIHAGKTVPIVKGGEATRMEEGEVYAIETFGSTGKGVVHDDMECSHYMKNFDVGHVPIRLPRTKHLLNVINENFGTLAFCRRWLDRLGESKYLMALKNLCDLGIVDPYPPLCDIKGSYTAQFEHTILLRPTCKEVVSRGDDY
Protocol summary: MetAP2 enzyme assay, enzyme complexed with manganese ions
Condition label: MetAP2 Mn pIC50, MetAP2 enzyme complexed with manganese ions; Met-AMC substrate at Km
The figure you give is taken to be in nM; do not add the unit.

[[record]]
compound = "O=C(c1cc(-c2cc(C(F)(F)F)cc3[nH]ncc23)ccn1)N1CC(O)C1 [Example 385]"
target_of_assay = "human MetAP2 enzyme (Homo sapiens, UniProt P50579)"
units = "nM"
val = 5.01


Would you kindly look at the next entry?
IC50 measured on N#Cc1ccc2ncc(-c3cc(C(F)(F)F)cc4[nH]ncc34)n2c1 [Example 153] = 25.1

* * *

Target of assay: human MetAP2 enzyme (Homo sapiens)
Protocol summary: MetAP2 enzyme assay, enzyme complexed with cobalt ions
Condition label: MetAP2 Co pIC50, MetAP2 enzyme complexed with cobalt ions; Met-AMC substrate at Km
Assay endpoint: pIC50
Note on units: pIC50 is unitless, being -log10 of a concentration expressed in mol/L.

Recorded pIC50, per entry:
[[record]]
structure_string = "Cc1nn(CCN(C)C)c(C)c1-c1cc(C(F)(F)F)cc2[nH]ncc12"
val = 7.30

[[record]]
structure_string = "O=S(=O)(c1ccc(-c2cc(C(F)(F)F)cc3[nH]ncc23)cc1)N1CCOCC1"
val = 7.00

[[record]]
structure_string = "Cn1ccnc1-c1cc(C(F)(F)F)cc2[nH]ncc12"
val = 5.30


So, N#Cc1ncc(-c2cc(C(F)(F)F)cc3[nH]ncc23)cn1 ? Its pIC50 was 6.20

Briefly, pIC50 measured for Nc1ncc(-c2cc(C(F)(F)F)cc3[nH]ncc23)cc1C(=O)NCCO : 6.80

Sample NC(=O)c1ncc(-c2cc(C(F)(F)F)cc3[nH]ncc23)cn1 ; pIC50 observed: 6.70

Item: Cc1nn(CC(=O)N(C)C)c(C)c1-c1cc(C(F)(F)F)cc2[nH]ncc12 | pIC50: 7.10

For reference, reported pIC50 for Cc1[nH]cnc1-c1cc(C(F)(F)F)cc2[nH]ncc12 stands at 6.60

Documented pIC50 of Cc1cc(S(N)(=O)=O)ccc1-c1cc(C(F)(F)F)cc2[nH]ncc12 : 7.70

* * *

Target of assay: human MetAP2 enzyme (Homo sapiens)
Protocol summary: MetAP2 enzyme assay, enzyme complexed with cobalt ions
Condition label: MetAP2 Co pIC50, MetAP2 enzyme complexed with cobalt ions; Met-AMC substrate at Km
Listed below: IC50 values for each entry.

For orientation, consider the following solved cases.
[[record]]
structure_string = "FC(F)(F)c1cc(-c2cnc3[nH]ccc3n2)c2cn[nH]c2c1"
assay_endpoint = "IC50"
val = "0.158 µM"

[[record]]
structure_string = "Cc1ccc(C(=O)N2CCC(O)CC2)cc1-c1cc(C(F)(F)F)cc2[nH]ncc12"
assay_endpoint = "IC50"
val = "0.1 µM"

[[record]]
structure_string = "Cc1nc(NS(C)(=O)=O)ccc1-c1cc(C(F)(F)F)cc2[nH]ncc12"
assay_endpoint = "IC50"
val = "0.0501 µM"

[[record]]
structure_string = "OCCNc1ncc(-c2cc(C(F)(F)F)cc3[nH]ncc23)cn1"
assay_endpoint = "IC50"
val = "0.0794 µM"


The recorded IC50 for Cc1nn(CC#N)c(C)c1-c1cc(C(F)(F)F)cc2[nH]ncc12 is 0.1 µM

Just so you know, measured IC50 for COc1nc(C(=O)NCCO)ccc1-c1cc(C(F)(F)F)cc2[nH]ncc12 came out at 0.0316 µM

Measured IC50, NS(=O)(=O)c1ccc(-c2cc(C(F)(F)F)cc3[nH]ncc23)cc1 : 0.0501 µM

So for Cc1cnc(-c2cc(C(F)(F)F)cc3[nH]ncc23)n1C , the logged IC50 turned out to be 0.316 µM

# IC50 (molecule: O=C(Cn1cncn1)NCc1ccccc1-c1cc(C(F)(F)F)cc2[nH]ncc12 ) is 0.501 µM

* * *

Target of assay: human MetAP2 enzyme (Homo sapiens)
Protocol summary: MetAP2 enzyme assay, enzyme complexed with cobalt ions
Condition label: MetAP2 Co pIC50, MetAP2 enzyme complexed with cobalt ions; Met-AMC substrate at Km
Assay endpoint: pIC50
Schema: pIC50 number; meaning minus log10 of the concentration expressed in molar units.

[[record]]
compound = "COc1ncc(-c2cc(C(F)(F)F)cc3[nH]ncc23)cc1C(=O)NCCO [Example 229]"
val = 7.20


O=C1NCc2c1cccc2-c1cc(C(F)(F)F)cc2[nH]ncc12 has a reported pIC50 of 7.90

Lab book: pIC50 of FC(F)(F)c1cc(-c2ccc(-c3ccn[nH]3)cc2)c2cn[nH]c2c1 noted as 7.00

For this compound ( O=C(NCCO)c1cc(-c2cc(C(F)(F)F)cc3[nH]ncc23)c[nH]c1=O ), measured pIC50 is 6.80

The measured pIC50 associated with Cc1cc(C(=O)N2CC(O)C2)ccc1-c1cc(C(F)(F)F)cc2[nH]ncc12 reads 7.80

COc1cccnc1-c1cc(C(F)(F)F)cc2[nH]ncc12 yielded pIC50 of 6.20

Reported pIC50 ( N#Cc1cc(F)ccc1-c1cc(C(F)(F)F)cc2[nH]ncc12 ) = 6.80

For this compound ( Cc1nn(CC(=O)N2CCOCC2)c(C)c1-c1cc(C(F)(F)F)cc2[nH]ncc12 ), measured pIC50 is 7.20

* * *

Target of assay: UniProt P50579
Protocol summary: MetAP2 enzyme assay, enzyme complexed with cobalt ions
Condition label: MetAP2 Co pIC50, MetAP2 enzyme complexed with cobalt ions; Met-AMC substrate at Km
Assay endpoint: IC50
Please state the number and follow it with the unit.

# count of solved cases: 10
[[record]]
compound = "Cc1ccc(S(=O)(=O)N(C)C)cc1-c1cc(C(F)(F)F)cc2[nH]ncc12 [Example 127]"
val = "15.8 nM"

[[record]]
compound = "FC(F)(F)c1cc(-c2ccncc2)c2cn[nH]c2c1 [Example 14]"
val = "100 nM"

[[record]]
compound = "NC(=O)c1cc(-c2cc(C(F)(F)F)cc3[nH]ncc23)cnc1N [Example 233]"
val = "100 nM"

[[record]]
compound = "Cc1cc(-c2cc(C(F)(F)F)cc3[nH]ncc23)n(C)n1 [Example 126]"
val = "50.1 nM"

[[record]]
compound = "CN1C(=O)Cc2cc(-c3cc(C(F)(F)F)cc4[nH]ncc34)ccc21 [Example 234]"
val = "20 nM"

[[record]]
compound = "CN(C)CCn1c(=O)c(-c2cc(C(F)(F)F)cc3[nH]ncc23)cn(C)c1=O [Example 319]"
val = "1260 nM"

[[record]]
compound = "COc1ccc(CC(=O)N2CCOCC2)cc1-c1cc(C(F)(F)F)cc2[nH]ncc12 [Example 316]"
val = "50.1 nM"

[[record]]
compound = "FC(F)(F)c1cc(-c2cnc(N3CCOCC3)nc2)c2cn[nH]c2c1 [Example 118]"
val = "39.8 nM"

[[record]]
compound = "COc1ncc(N)cc1-c1cc(C(F)(F)F)cc2[nH]ncc12 [Example 187]"
val = "79.4 nM"

[[record]]
compound = "Cc1nc(CCS(C)(=O)=O)ccc1-c1cc(C(F)(F)F)cc2[nH]ncc12 [Example 409]"
val = "15.8 nM"


IC50 reported for this compound O=C(c1ncc(-c2cc(C(F)(F)F)cc3[nH]ncc23)cn1)N1CCOCC1 [Example 294] : 1580 nM

Cn1cc(-c2cc(C(F)(F)F)cc3[nH]ncc23)c(=O)n(CC(N)=O)c1=O [Example 300] yielded IC50 of 398 nM

Measured IC50 of COc1ccc(CC(=O)NCCO)cc1-c1cc(C(F)(F)F)cc2[nH]ncc12 [Example 320] : 25.1 nM

Lab note: measured IC50 of Cc1nc(C#N)ccc1-c1cc(C(F)(F)F)cc2[nH]ncc12 [Example 377] was 50.1 nM

* * *

Target of assay: human MetAP2 enzyme (Homo sapiens, UniProt P50579)
Protocol summary: MetAP2 enzyme assay, enzyme complexed with manganese ions
Condition label: MetAP2 Mn pIC50, MetAP2 enzyme complexed with manganese ions; Met-AMC substrate at Km
Assay endpoint: IC50 (nM)
State the answer as a number, implicitly in nM.

Some solved entries appear below for comparison.
[[record]]
compound = "O=C(NCC(O)CO)c1c[nH]c(=O)c(-c2cc(C(F)(F)F)cc3[nH]ncc23)c1 (stereo not shown)"
units = "nM"
val = 15.8

[[record]]
compound = "Cc1c(-c2cc(C(F)(F)F)cc3[nH]ncc23)ccc(=O)n1Cc1ccccn1"
units = "nM"
val = 12.6


Field IC50 (entry FC(F)(F)c1cc(-c2cccc(-n3cccn3)c2)c2cn[nH]c2c1 ) reads 6.31

IC50 measured on FC(F)(F)c1cc(-c2cnc3[nH]c(C(F)(F)F)nc3c2)c2cn[nH]c2c1 = 6.31
